Below is a list of entries, each paired with its recorded Total main peak purity (%) value.
- Experiment notes: High temperature stability study of compounds (60° C.)
- Type: physicochemical
- Experimental conditions: in the dark, Day 5
Give the value in % but do not write % after it.

Tell me its Total main peak purity (%) given CCC(OC(C)=O)OC(=O)C1CCn2c(C(=O)c3ccccc3)ccc21 (centres unmarked) as the entry.
90.83

Tell me its Total main peak purity (%) given CC(=O)OC(OC(=O)C1CCn2c(C(=O)c3ccccc3)ccc21)C(C)C (centres unmarked) as the entry.
97.62

Tell me its Total main peak purity (%) given CC(OC(=O)C1CCn2c(C(=O)c3ccccc3)ccc21)OC(=O)C(C)(C)C (centres unmarked) as the entry.
88.66

Tell me its Total main peak purity (%) given CCOC(=O)OC(C)OC(=O)C1CCn2c(C(=O)c3ccccc3)ccc21 (centres unmarked) as the entry.
93.59

Tell me its Total main peak purity (%) given CC(OC(=O)OC1CCCCC1)OC(=O)C1CCn2c(C(=O)c3ccccc3)ccc21 (centres unmarked) as the entry.
94.28

---
Tell me its Total main peak purity (%) given CC(C)OC(=O)OC(C)OC(=O)C1CCn2c(C(=O)c3ccccc3)ccc21 (centres unmarked) as the entry.
95.21

Tell me its Total main peak purity (%) given CC(OC(=O)C(C)C)OC(=O)C1CCn2c(C(=O)c3ccccc3)ccc21 (centres unmarked) as the entry.
90.94

Tell me its Total main peak purity (%) given CCC(=O)OC(OC(=O)C1CCn2c(C(=O)c3ccccc3)ccc21)C(C)C (centres unmarked) as the entry.
95.58

Tell me its Total main peak purity (%) given CCC(OC(=O)OC(C)C)OC(=O)C1CCn2c(C(=O)c3ccccc3)ccc21 (centres unmarked) as the entry.
96.50

Tell me its Total main peak purity (%) given CCC(=O)OC(CC)OC(=O)C1CCn2c(C(=O)c3ccccc3)ccc21 (centres unmarked) as the entry.
93.30

Tell me its Total main peak purity (%) given CCOC(=O)OC(CC)OC(=O)C1CCn2c(C(=O)c3ccccc3)ccc21 (centres unmarked) as the entry.
95.87

Tell me its Total main peak purity (%) given CCC(=O)OC(C)OC(=O)C1CCn2c(C(=O)c3ccccc3)ccc21 (centres unmarked) as the entry.
98.38

Tell me its Total main peak purity (%) given CCOC(=O)OC(OC(=O)C1CCn2c(C(=O)c3ccccc3)ccc21)C(C)C (centres unmarked) as the entry.
92.10

Tell me its Total main peak purity (%) given CC(C)OC(=O)OC(OC(=O)C1CCn2c(C(=O)c3ccccc3)ccc21)C(C)C (centres unmarked) as the entry.
94.61

* * *

- Experiment notes: in vitro
- Experimental conditions: human, plasma
Test readout: half-life at 97.6 µM
Just so you know, I need the unit written after the number.

Please review the entries below; each comes with its answer.
Tell me its half-life at 97.6 µM given CC(C)OC(=O)C1CCn2c(C(=O)c3ccccc3)ccc21 (stereo not shown) [N11, reference compound] as the entry.
347 min

Tell me its half-life at 97.6 µM given CCOC(=O)OC(C)OC(=O)C1CCn2c(C(=O)c3ccccc3)ccc21 (stereo not shown) as the entry.
14.8 min

Tell me its half-life at 97.6 µM given CCCCCCCCOC(=O)OC(C)OC(=O)C1CCn2c(C(=O)c3ccccc3)ccc21 (stereo not shown) as the entry.
177 min

Tell me its half-life at 97.6 µM given CC(=O)OC(C)OC(=O)C(C)c1ccc(-c2ccccc2)c(F)c1 (stereo not shown) [FPA, flurbiprofen axetil, reference compound] as the entry.
40.8 min

Tell me its half-life at 97.6 µM given CC(C)OC(=O)OC(C)OC(=O)C1CCn2c(C(=O)c3ccccc3)ccc21 (stereo not shown) as the entry.
38.6 min

Tell me its half-life at 97.6 µM given CCC(OC(=O)OC(C)C)OC(=O)C1CCn2c(C(=O)c3ccccc3)ccc21 (stereo not shown) as the entry.
31.6 min

---
Tell me its half-life at 97.6 µM given CCC(=O)OC(CC)OC(=O)C1CCn2c(C(=O)c3ccccc3)ccc21 (stereo not shown) as the entry.
16.9 min

* * *

- Experiment notes: Stability study of levorotatory enantiomer of compounds in solvent (MCT)
- Format: physicochemical
- Experimental conditions: MCT solution, 5° C., Day 30
Test readout: Purity (%)
Give the value in % but do not write % after it.

Tell me its Purity (%) given CC(C)OC(=O)OC(C)OC(=O)[C@H]1CCn2c(C(=O)c3ccccc3)ccc21 (stereo partly drawn) [N2(S)] as the entry.
99.01

Tell me its Purity (%) given CCC(OC(=O)OC(C)C)OC(=O)[C@H]1CCn2c(C(=O)c3ccccc3)ccc21 (stereo partly drawn) [N16(S)] as the entry.
99.52

Tell me its Purity (%) given CCOC(=O)OC(C)OC(=O)[C@H]1CCn2c(C(=O)c3ccccc3)ccc21 (stereo partly drawn) [N12(S)] as the entry.
99.55

Tell me its Purity (%) given CCOC(=O)OC(CC)OC(=O)[C@H]1CCn2c(C(=O)c3ccccc3)ccc21 (stereo partly drawn) [N15(S)] as the entry.
99.38

* * *

Below is a list of entries, each paired with its recorded Purity (%) value.
- Experiment notes: Stability study of levorotatory enantiomer of compounds in solvent (MCT)
- Type: physicochemical
- Experimental conditions: MCT solution, 5° C., Day 5
Give the value in % but do not write % after it.

Please review the entries below; each comes with its answer.
Tell me its Purity (%) given CCOC(=O)OC(CC)OC(=O)[C@H]1CCn2c(C(=O)c3ccccc3)ccc21 (stereo partly drawn) [N15(S)] as the entry.
99.46

Tell me its Purity (%) given CC(C)OC(=O)OC(C)OC(=O)[C@H]1CCn2c(C(=O)c3ccccc3)ccc21 (stereo partly drawn) [N2(S)] as the entry.
99.08

Tell me its Purity (%) given CCOC(=O)OC(C)OC(=O)[C@H]1CCn2c(C(=O)c3ccccc3)ccc21 (stereo partly drawn) [N12(S)] as the entry.
99.62

Please turn your attention to the following entry.
Tell me its Purity (%) given CCC(OC(=O)OC(C)C)OC(=O)[C@H]1CCn2c(C(=O)c3ccccc3)ccc21 (stereo partly drawn) [N16(S)] as the entry.
99.55

* * *

Below is a list of entries, each paired with its recorded Purity (%) value.
- Experiment notes: Stability study of levorotatory enantiomer of compounds in solvent (MCT)
- Format: physicochemical
- Experimental conditions: MCT solution, 5° C., day 0
Just so you know, I need the unit written after the number.

Tell me its Purity (%) given CCOC(=O)OC(C)OC(=O)[C@H]1CCn2c(C(=O)c3ccccc3)ccc21 (stereo partly drawn) [N12(S)] as the entry.
99.65%

Tell me its Purity (%) given CCOC(=O)OC(CC)OC(=O)[C@H]1CCn2c(C(=O)c3ccccc3)ccc21 (stereo partly drawn) [N15(S)] as the entry.
99.48%

Tell me its Purity (%) given CC(C)OC(=O)OC(C)OC(=O)[C@H]1CCn2c(C(=O)c3ccccc3)ccc21 (stereo partly drawn) [N2(S)] as the entry.
99.14%

---
Tell me its Purity (%) given CCC(OC(=O)OC(C)C)OC(=O)[C@H]1CCn2c(C(=O)c3ccccc3)ccc21 (stereo partly drawn) [N16(S)] as the entry.
99.71%

* * *

- Experiment notes: Stability study of levorotatory enantiomer of compounds in solvent (MCT)
- Type: physicochemical
- Experimental conditions: MCT solution, 60° C., Day 5
Test readout: Purity (%)
Give the value in % but do not write % after it.

Tell me its Purity (%) given CC(C)OC(=O)OC(C)OC(=O)[C@H]1CCn2c(C(=O)c3ccccc3)ccc21 (stereo partly drawn) [N2(S)] as the entry.
98.92

---
Tell me its Purity (%) given CCC(OC(=O)OC(C)C)OC(=O)[C@H]1CCn2c(C(=O)c3ccccc3)ccc21 (stereo partly drawn) [N16(S)] as the entry.
99.52

Tell me its Purity (%) given CCOC(=O)OC(CC)OC(=O)[C@H]1CCn2c(C(=O)c3ccccc3)ccc21 (stereo partly drawn) [N15(S)] as the entry.
99.35

Tell me its Purity (%) given CCOC(=O)OC(C)OC(=O)[C@H]1CCn2c(C(=O)c3ccccc3)ccc21 (stereo partly drawn) [N12(S)] as the entry.
99.53

* * *

- Experiment notes: High temperature stability study of compounds (60° C.)
- Type: physicochemical
- Experimental conditions: related substance, in the dark, Day 5
Test readout: Ketorolac (%)
Give the value in % but do not write % after it.

Tell me its Ketorolac (%) given CCC(=O)OC(OC(=O)C1CCn2c(C(=O)c3ccccc3)ccc21)C(C)C (centres unmarked) as the entry.
0.31

Tell me its Ketorolac (%) given CCC(OC(=O)OC(C)C)OC(=O)C1CCn2c(C(=O)c3ccccc3)ccc21 (centres unmarked) as the entry.
0.07

Tell me its Ketorolac (%) given CCOC(=O)OC(C)OC(=O)C1CCn2c(C(=O)c3ccccc3)ccc21 (centres unmarked) as the entry.
0.07

Tell me its Ketorolac (%) given CC(C)OC(=O)OC(C)OC(=O)C1CCn2c(C(=O)c3ccccc3)ccc21 (centres unmarked) as the entry.
0.04

---
Tell me its Ketorolac (%) given CC(C)OC(=O)OC(OC(=O)C1CCn2c(C(=O)c3ccccc3)ccc21)C(C)C (centres unmarked) as the entry.
0.09

Tell me its Ketorolac (%) given CC(OC(=O)OC1CCCCC1)OC(=O)C1CCn2c(C(=O)c3ccccc3)ccc21 (centres unmarked) as the entry.
0.23

Tell me its Ketorolac (%) given CCOC(=O)OC(CC)OC(=O)C1CCn2c(C(=O)c3ccccc3)ccc21 (centres unmarked) as the entry.
0.09

Tell me its Ketorolac (%) given CC(=O)OC(OC(=O)C1CCn2c(C(=O)c3ccccc3)ccc21)C(C)C (centres unmarked) as the entry.
0.15

Tell me its Ketorolac (%) given CC(OC(=O)C(C)C)OC(=O)C1CCn2c(C(=O)c3ccccc3)ccc21 (centres unmarked) as the entry.
0.13

Tell me its Ketorolac (%) given CCC(=O)OC(C)OC(=O)C1CCn2c(C(=O)c3ccccc3)ccc21 (centres unmarked) as the entry.
0.17

Tell me its Ketorolac (%) given CCC(=O)OC(CC)OC(=O)C1CCn2c(C(=O)c3ccccc3)ccc21 (centres unmarked) as the entry.
0.42

Tell me its Ketorolac (%) given CCC(OC(C)=O)OC(=O)C1CCn2c(C(=O)c3ccccc3)ccc21 (centres unmarked) as the entry.
0.15

Tell me its Ketorolac (%) given CCOC(=O)OC(OC(=O)C1CCn2c(C(=O)c3ccccc3)ccc21)C(C)C (centres unmarked) as the entry.
0.18

Tell me its Ketorolac (%) given CC(OC(=O)C1CCn2c(C(=O)c3ccccc3)ccc21)OC(=O)C(C)(C)C (centres unmarked) as the entry.
0.25

Taken from patent US12649746B2.
